system: MCF7; test: Cytotoxicity against human MCF7 cells by MTT colorimetric method; assay type: functional, cell-based
Value Kind: IC50 (µg/mL)
Entry rule: numbers only, all in µg/mL.

Compound: C=C1C(=O)O[C@@H]2[C@@H]1C[C@H](O)[C@](C)(O)CC/C=C(\C)CC/C=C(\C)[C@@H]2OC(C)=O [CRASSOLIDE A]
System Name: MCF7
Unit Annotation: µg/mL
Experimental Value: 8.9

# context switch: different compound, same IC50
Exam item: Look up IC50 of C=C1C(=O)O[C@H]2C[C@]3(C)O[C@H]3CC/C(C)=C/CC/C(C)=C/C[C@H]12 [LOBOPHYTOLIDE] and report it.
Marked response: 2.3

====

tested on: MCF7; experiment: Cytotoxicity against human MCF7 cells by MTT colorimetric method; type: functional, cell-based
Listed here are compounds together with their documented IC50.
Entry rule: numbers only, all in µg/mL.

Compound: COc1cccc2c1C(=O)c1c(O)c3c(c(O)c1C2=O)C[C@@](O)(C(=O)CO)C[C@@H]3O[C@H]1C[C@H](N)[C@H](O)[C@H](C)O1
System Name: MCF7
Unit Annotation: µg/mL
IC50: 0.3

Exam item: Look up IC50 of C=C1C(=O)O[C@H]2C[C@@]3(C)O[C@@H]3CC/C(C)=C/C[C@@H](OC(C)=O)/C(C)=C/C[C@H]12 [CRASSOCOLIDE F] and report it.
Marked response: 7.4

Exam item: Look up IC50 of C=C1C(=O)O[C@@H]2[C@@H]1C[C@H](OC(C)=O)[C@](C)(O)CC/C=C(\C)CC/C=C(\C)[C@@H]2OC(C)=O [CRASSOCOLIDE B] and report it.
Marked response: 10.3

Exam item: Look up IC50 of C=C1C(=O)O[C@H]2C/C(C)=C/CC/C(C)=C/CC[C@@](C)(O)[C@@H](O)C[C@H]12 [CRASSOCOLIDE D] and report it.
Marked response: 15.3

====

test: Cytotoxicity against human Hep G2 cells by MTT colorimetric method; type: functional, cell-based; conditions: HepG2
Value Kind: IC50 (µg/mL)
Entry rule: numbers only, all in µg/mL.

Molecule: C=C1C(=O)O[C@H]2C[C@@]3(C)O[C@@H]3CC/C(C)=C/C[C@@H](OC(C)=O)/C(C)=C/C[C@H]12 [CRASSOCOLIDE F]
Unit Annotation: µg/mL
Experimental Value: 2.1

Exam item: Look up IC50 of C=C1C(=O)O[C@@H]2[C@@H]1C[C@H](O)[C@](C)(O)CC/C=C(\C)CC/C=C(\C)[C@@H]2OC(C)=O [CRASSOLIDE A] and report it.
Marked response: 3.1

Exam item: Look up IC50 of COc1cccc2c1C(=O)c1c(O)c3c(c(O)c1C2=O)C[C@@](O)(C(=O)CO)C[C@@H]3O[C@H]1C[C@H](N)[C@H](O)[C@H](C)O1 and report it.
Marked response: 0.2

Exam item: Look up IC50 of C=C1C(=O)O[C@H]2C[C@]3(C)O[C@H]3CC/C(C)=C/CC/C(C)=C/C[C@H]12 [LOBOPHYTOLIDE] and report it.
Marked response: 6.3

Exam item: Look up IC50 of C=C1C(=O)O[C@@H]2[C@@H]1C[C@H](OC(C)=O)[C@](C)(O)CC/C=C(\C)CC/C=C(\C)[C@@H]2OC(C)=O [CRASSOCOLIDE B] and report it.
Marked response: 13.1
